Test system: pSTAT5/GM-CSF
assay.overview: pSTAT5/GM-CSF cellular assay (JAK2 selectivity)
Format: cell-based
experimental.endpoint: IC50

{"columns": ["molecule", "IC50"],
 "data": [
  ["CCn1ccc(-c2cnc(NC(C)=O)cc2Nc2cc(COC)cc(S(C)(=O)=O)n2)n1 [Example M7]", "> 10 µM"],
  ["CC(=O)Nc1cc(Nc2cc(OC(C)C)cc(S(C)(=O)=O)n2)c(-c2cc3n(n2)CCOC3)cn1 [Example Q6]", "> 10 µM"],
  ["[2H]C([2H])([2H])Oc1cc(Nc2cc(NC(C)=O)ncc2-c2ccc(N3C[C@@H](C)O[C@@H](C)C3)cn2)nc(S(C)(=O)=O)c1 [Example C17]", "> 10 µM"],
  ["COCCOc1cc(Nc2cc(NC(C)=O)ncc2-c2ccc(COC)cn2)nc(S(C)(=O)=O)c1 [Example E5]", "> 10 µM"],
  ["CCOc1cc(Nc2cc(NC(C)=O)ncc2-c2ccc(F)cn2)nc(S(C)(=O)=O)c1 [Example F19]", "> 10 µM"],
  ["COCCOc1cc(Nc2cc(NC(C)=O)ncc2-c2ccc(C(C)(C)O)cn2)cc(S(C)(=O)=O)c1 [Example H15]", "> 10 µM"],
  ["CCn1ccc(-c2cnc(NC(C)=O)cc2Nc2cc(OC3CCCC3)cc(S(C)(=O)=O)n2)n1 [Example M17]", "> 10 µM"],
  ["CCn1ccc(-c2cnc(NC(C)=O)cc2Nc2cc(OCCOC)cc(S(C)(=O)=O)n2)n1 [Example M20]", "> 10 µM"],
  ["CC(=O)Nc1cc(Nc2cc(C3CCOCC3)cc(S(C)(=O)=O)n2)c(-c2ccn(C)n2)cn1 [Example J61]", "> 10 µM"],
  ["CC(=O)Nc1cc(Nc2cncc(S(C)(=O)=O)n2)c(-c2ccc3c(n2)OC(C)(C)CO3)cn1 [Example Q28]", "> 10 µM"]
]}

Query: Reported IC50 for CC(=O)Nc1cc(Nc2cc(OC(C)C)cc(S(C)(=O)=O)c2)c(-c2ccn(C(C)C)n2)cn1 [Example M26] : what is it?
Reply: > 10 µM

Query: Same question for CCOc1cc(Nc2cc(NC(C)=O)ncc2-c2ccc(OCCOC)cn2)nc(S(C)(=O)=O)c1 [Example D9] please.
Reply: > 10 µM

Query: Repeat with CC(=O)Nc1cc(Nc2cccc(S(C)(=O)=O)n2)c(-c2ccn(C3CC3)n2)cn1 [Example M1]
Reply: 2.01 µM

Query: Likewise for CC(=O)Nc1cc(Nc2cccc(S(C)(=O)=O)n2)c(-c2ccccn2)cn1 [Example B5] ?
Reply: > 10 µM

Query: Ok, now CC(=O)Nc1cc(Nc2cc(OCCO)cc(S(C)(=O)=O)n2)c(-c2ccc(OC3CCOC3)cn2)cn1 (stereo not drawn) [Example B22]
Reply: 2.49 µM

Query: Repeat with CC(=O)Nc1cc(Nc2cc(C)cc(S(C)(=O)=O)n2)c(-c2ccn(C3CC3)n2)cn1 [Example M3]
Reply: 8.35 µM

Query: Would you mind doing CC(=O)Nc1cc(Nc2cc(OC3CC3)cc(S(C)(=O)=O)c2)c(-c2ccn(C)n2)cn1 [Example J36] as well?
Reply: > 10 µM

Query: Could you do the same for CC(=O)Nc1cc(Nc2cc(-c3nccnc3C)cc(S(C)(=O)=O)n2)c(-c2ccc3c(n2)OCC(C)(C)O3)cn1 [Example Q110] , please?
Reply: > 10 µM

Query: Then CC(=O)Nc1cc(Nc2cc(-c3cnccc3C)cc(S(C)(=O)=O)n2)c(-c2ccc3c(n2)OCC(C)(C)O3)cn1 [Example Q62] ?
Reply: > 10 µM

Query: Here is the next molecule: CC(=O)Nc1cc(Nc2cc(C(F)(F)F)cc(S(C)(=O)=O)c2)c(-c2ccc(C(C)(C)O)cn2)cn1 [Example H3]
Reply: 7.19 µM
